Measured values drawn from ChEMBL document CHEMBL6071188 for this set.

I'd appreciate it if you could supply log10 microsomal intrinsic clearance values for the items below.
Test: Metabolic stability in human liver microsomes assessed as intrinsic clearance
Format: ADME, Microsome
Settings: microsomes
Units before log transform: µL/min/mg; reported quantity: microsomal intrinsic clearance; transform: log10.

CC(C)C1(O)CN(C(=O)O[C@@H]2CCC[C@]3(C2)OOC2(O3)C3CC4CC(C3)CC2C4)C1 (some centres undefined) = 2.59
NCCNC(=O)O[C@H]1CCC[C@@]2(C1)OOC1(O2)C2CC3CC(C2)CC1C3 (some centres undefined) = 1.36

State the recorded log10 microsomal intrinsic clearance for every item in the following list.
1. CCCC1(O)CN(C(=O)O[C@H]2CCC[C@@]3(C2)OOC2(O3)C3CC4CC(C3)CC2C4)C1 (some centres undefined)
2. NC1(CNC(=O)O[C@@H]2CCC[C@]3(C2)OOC2(O3)C3CC4CC(C3)CC2C4)CCC1 (some centres undefined)

Result:
1: 2.83; 2: 1.57

###

Assay: Solubility of the compound in PBS buffer at pH 7.4
Type: physicochemical
If the reported solubility kinetic equals or exceeds 100 µM, assign class 1. If not, assign class 0.

Below are worked cases with known answers.
NC1CCN(C(=O)O[C@@H]2CCC[C@]3(C2)OOC2(O3)C3CC4CC(C3)CC2C4)CC1 (stereo partly drawn) = class 1
N=S(=O)(CCNC(=O)O[C@H]1CCC[C@@]2(C1)OOC1(O2)C2CC3CC(C2)CC1C3)C1CC1 (stereo partly drawn) = class 1
CS(=N)(=O)C1CN(C(=O)O[C@H]2CCC[C@@]3(C2)OOC2(O3)C3CC4CC(C3)CC2C4)C1 (stereo partly drawn) = class 1
NCCC1CCN(C(=O)O[C@H]2CCC[C@@]3(C2)OOC2(O3)C3CC4CC(C3)CC2C4)CC1 (stereo partly drawn) = class 1
N=S(=O)(CCNC(=O)O[C@@H]1CCC[C@]2(C1)OOC1(O2)C2CC3CC(C2)CC1C3)C1CC1 (stereo partly drawn) = class 0

Request: Say whether CC(C)C1(O)CN(C(=O)O[C@H]2CCC[C@@]3(C2)OOC2(O3)C3CC4CC(C3)CC2C4)C1 (stereo partly drawn) shows solubility kinetic of 100 µM or more.
Result: class 0

Request: Say whether CS(=N)(=O)CCNC(=O)O[C@@H]1CCC[C@]2(C1)OOC1(O2)C2CC3CC(C2)CC1C3 (stereo partly drawn) shows solubility kinetic of 100 µM or more.
Result: class 1

Request: Say whether CC1(O)CN(C(=O)O[C@H]2CCC[C@@]3(C2)OOC2(O3)C3CC4CC(C3)CC2C4)C1 (stereo partly drawn) shows solubility kinetic of 100 µM or more.
Result: class 1

Request: Say whether N[C@@H]1CCCN(C(=O)O[C@H]2CCC[C@@]3(C2)OOC2(O3)C3CC4CC(C3)CC2C4)C1 (stereo partly drawn) shows solubility kinetic of 100 µM or more.
Result: class 1

Request: Say whether CCCC1(O)CN(C(=O)O[C@H]2CCC[C@@]3(C2)OOC2(O3)C3CC4CC(C3)CC2C4)C1 (stereo partly drawn) shows solubility kinetic of 100 µM or more.
Result: class 0

###

Test system: Plasmodium falciparum
Assay: Antiplasmodial activity against Plasmodium falciparum W2 infected in human erythrocytes assessed as inhibition of parasitic growth incubated for 72 hrs by YOYO-1 staining based FACScalibur flow cytometry analysis
Type: functional, organism-based
Settings: W2, Erythrocyte
recorded.endpoint: EC50 (nM)
Numbers only, in nM.

Request: EC50 for NC1(CNC(=O)O[C@@H]2CCC[C@]3(C2)OOC2(O3)C3CC4CC(C3)CC2C4)CC1 (stereo partly specified) ?
Result: 1.5

###

Test: Solubility of the compound in PBS buffer at pH 7.4
Format: physicochemical
recorded.endpoint: solubility kinetic (µM)
Numbers only, in µM.

Some compounds with known solubility kinetic results, for comparison:
C[S+]([O-])C1CN(C(=O)O[C@@H]2CCC[C@]3(C2)OOC2(O3)C3CC4CC(C3)CC2C4)C1 (stereo partly drawn) = 138
CCCC1(O)CN(C(=O)O[C@@H]2CCC[C@]3(C2)OOC2(O3)C3CC4CC(C3)CC2C4)C1 (stereo partly drawn) = 16.1
O=C(O[C@H]1CCC[C@@]2(C1)OOC1(O2)C2CC3CC(C2)CC1C3)N1CC(O)(C(F)(F)F)C1 (stereo partly drawn) = 10.8
NCC1CCN(C(=O)O[C@H]2CCC[C@@]3(C2)OOC2(O3)C3CC4CC(C3)CC2C4)CC1 (stereo partly drawn) = 112
NC1(CNC(=O)O[C@@H]2CCC[C@]3(C2)OOC2(O3)C3CC4CC(C3)CC2C4)COC1 (stereo partly drawn) = 122
NC1(CNC(=O)O[C@H]2CCC[C@@]3(C2)OOC2(O3)C3CC4CC(C3)CC2C4)CCCC1 (stereo partly drawn) = 13.4
CC1(O)CN(C(=O)O[C@@H]2CCC[C@]3(C2)OOC2(O3)C3CC4CC(C3)CC2C4)C1 (stereo partly drawn) = 71.4

Please turn your attention to the following entry.
Request: solubility kinetic for CC(C)(N)CNC(=O)O[C@H]1CCC[C@@]2(C1)OOC1(O2)C2CC3CC(C2)CC1C3 (stereo partly drawn) ?
Result: 174

###

I'd appreciate it if you could supply solubility values for the items below.
Assay: Solubility of the compound in PBS buffer at pH 7.4 at 2 mg/ml incubated for 5 to 6 hrs by LC-MS analysis
Type: physicochemical
Settings: time 5-6 hrs
One number for each entry, in µM.

CC(C)(N)CNC(=O)C[C@H]1CC[C@]2(CC1)OO[C@]1(O2)C2CC3CC(C2)CC1C3 = 504

Request: solubility for c1cc([C@H]2CC[C@]3(CC2)OO[C@]2(O3)C3CC4CC(C3)CC2C4)ccc1OCCN1CCOCC1 ?
Result: 0.181

###

Tested on: Plasmodium berghei
Experiment: Antiplasmodial activity against Plasmodium berghei infected in female Swiss Webster mouse model assessed as survival at 10 mg/kg, po administered once daily for 2 days and measured upto 30 days
Type: functional
Conditions: time 30 day
recorded.endpoint: Survival (days)
Numbers only, in days.

Some compounds with known Survival results, for comparison:
NC1CCN(C(=O)O[C@@H]2CCC[C@]3(C2)OOC2(O3)C3CC4CC(C3)CC2C4)CC1 (stereo partly specified) = 12
NC1CCN(C(=O)O[C@H]2CCC[C@@]3(C2)OOC2(O3)C3CC4CC(C3)CC2C4)CC1 (stereo partly specified) = 11
NC1(CNC(=O)O[C@@H]2CCC[C@]3(C2)OOC2(O3)C3CC4CC(C3)CC2C4)COC1 (stereo partly specified) = 8
CC1(O)CN(C(=O)O[C@H]2CCC[C@@]3(C2)OOC2(O3)C3CC4CC(C3)CC2C4)C1 (stereo partly specified) = 4
O=C(O[C@@H]1CCC[C@]2(C1)OOC1(O2)C2CC3CC(C2)CC1C3)N1CC(O)(C(F)(F)F)C1 (stereo partly specified) = 9

Please turn your attention to the following entry.
Request: Survival for NC1(CNC(=O)O[C@H]2CCC[C@@]3(C2)OOC2(O3)C3CC4CC(C3)CC2C4)CCCC1 (stereo partly specified) ?
Result: 14

###

Assay: Metabolic stability in human liver microsomes assessed as intrinsic clearance
Assay type: ADME, Microsome
Settings: microsomes
If the reported microsomal intrinsic clearance equals or exceeds 500 µL/min/mg, assign 1 (yes). If not, assign 0 (no).

Below are worked cases with known answers.
O=C(O[C@H]1CCC[C@@]2(C1)OOC1(O2)C2CC3CC(C2)CC1C3)N1CC(O)(C(F)(F)F)C1 (stereo not given in full) = 0 (no)
N[C@H]1CC[C@H](NC(=O)O[C@H]2CCC[C@@]3(C2)OOC2(O3)C3CC4CC(C3)CC2C4)CC1 (stereo not given in full) = 0 (no)
C[S+]([O-])C1CN(C(=O)O[C@H]2CCC[C@@]3(C2)OOC2(O3)C3CC4CC(C3)CC2C4)C1 (stereo not given in full) = 1 (yes)
N[C@@H]1CCCN(C(=O)O[C@@H]2CCC[C@]3(C2)OOC2(O3)C3CC4CC(C3)CC2C4)C1 (stereo not given in full) = 0 (no)

Request: Say whether CC(C)C1(O)CN(C(=O)O[C@H]2CCC[C@@]3(C2)OOC2(O3)C3CC4CC(C3)CC2C4)C1 (stereo not given in full) shows microsomal intrinsic clearance of 500 µL/min/mg or more.
Result: 1 (yes)

Request: Say whether CS(=N)(=O)CCNC(=O)O[C@H]1CCC[C@@]2(C1)OOC1(O2)C2CC3CC(C2)CC1C3 (stereo not given in full) shows microsomal intrinsic clearance of 500 µL/min/mg or more.
Result: 0 (no)

Request: Say whether CS(=N)(=O)C1CN(C(=O)O[C@@H]2CCC[C@]3(C2)OOC2(O3)C3CC4CC(C3)CC2C4)C1 (stereo not given in full) shows microsomal intrinsic clearance of 500 µL/min/mg or more.
Result: 0 (no)

Request: Say whether NC1CN(C(=O)O[C@H]2CCC[C@@]3(C2)OOC2(O3)C3CC4CC(C3)CC2C4)C1 (stereo not given in full) shows microsomal intrinsic clearance of 500 µL/min/mg or more.
Result: 0 (no)

Request: Say whether O=C(O[C@@H]1CCC[C@]2(C1)OOC1(O2)C2CC3CC(C2)CC1C3)N1CC(O)(C(F)(F)F)C1 (stereo not given in full) shows microsomal intrinsic clearance of 500 µL/min/mg or more.
Result: 0 (no)

Request: Say whether CCC1(O)CN(C(=O)O[C@@H]2CCC[C@]3(C2)OOC2(O3)C3CC4CC(C3)CC2C4)C1 (stereo not given in full) shows microsomal intrinsic clearance of 500 µL/min/mg or more.
Result: 0 (no)

Request: Say whether NC1(CNC(=O)O[C@@H]2CCC[C@]3(C2)OOC2(O3)C3CC4CC(C3)CC2C4)COC1 (stereo not given in full) shows microsomal intrinsic clearance of 500 µL/min/mg or more.
Result: 0 (no)

Request: Say whether CS(=N)(=O)C1CN(C(=O)O[C@H]2CCC[C@@]3(C2)OOC2(O3)C3CC4CC(C3)CC2C4)C1 (stereo not given in full) shows microsomal intrinsic clearance of 500 µL/min/mg or more.
Result: 0 (no)
